# reported composite z-score; entries follow
# Test system: glycogen synthase kinase-3 (GSK3A per assay name; protocol says GSK3B)
# Test Protocol: GSK3 binders on small-molecule microarrays, primary screen, biochemical, small-molecule microarray, 635 nm fluorescence, GSK3A (AID 1103); further: the record names both GSK3A and GSK3B
# Condition Set: small-molecule microarray binding, fluorescence 635 nm; higher = more signal
Give your answer as a number; write no unit.

{"columns": ["Molecule", "Result Value"],
 "data": [
  ["COc1ccc([Si](C)(C)[C@H]2[C@H](CCO)O[C@@]3(C(=O)N(Cc4ccccc4)c4ccc(N5C(=O)c6ccccc6Oc6ccccc65)cc43)[C@@H]2C)cc1", -0.512],
  ["O=C1OCCC/C=C\\[C@H]2OC34C=CCN(c5ccc6ccccc6c5)C(=O)[C@H]3N(CCCO)C(=O)[C@@H]4C12 (some centres undefined)", -0.216],
  ["CC(CO)N1C(=O)[C@@H]2[C@H]3C(=O)OCC=C[C@H]3OC23C=CCN(c2ccc(Cl)cc2)C(=O)[C@@H]13 (some centres undefined)", -0.501]
]}

Turning now to a further record.
Form field: reported composite z-score of NCCCCCNC(=O)[C@@H]1C[C@@H]2C(=O)N3CCC[C@H]3C(=O)N2[C@@H]1c1ccc(O)cc1
1.14
